System: 857933-349-R-J2-PDC complex spheroids, viability
measurement.protocol: Anticancer human tumor 857933-349-R-J2-PDC patient-derived colon adenocarcinoma cell line growth inhibition [GQUAD]; active = viability on the fitted dose curve at most 10% of control; inactive = the rest
measurement.context: second compound 1 µM; first compound 10 µM
Classes used: active, inactive

compound	cat
C=CC(=O)N1CCN(c2nc(=O)n(-c3c(C)ccnc3C(C)C)c3nc(-c4c(O)cccc4F)c(F)cc23)C(C)C1 (stereo unspecified) + CN(C)c1ccc(Nc2c3ccc(NC(=O)CCN4CCCC4)cc3nc3cc(NC(=O)CCN4CCCC4)ccc23)cc1	inactive
C=CCn1c(=O)c2cnc(Nc3ccc(N4CCN(C)CC4)cc3)nc2n1-c1cccc(C(C)(C)O)n1 + Cc1cnc(CNC(=O)c2c(=O)c3ccc(N4CCCN(C)CC4)nc3n3c2sc2ccccc23)cn1	active
CC(C)(O)C1CCC(Nc2ccc3ncc(-c4cccc(C(F)(F)F)c4)n3n2)CC1 (stereo unspecified) + CN(C)c1ccc(Nc2c3ccc(NC(=O)CCN4CCCC4)cc3nc3cc(NC(=O)CCN4CCCC4)ccc23)cc1	active
CC1COCCN1c1cc(-c2ccnn2C)c2ccnc(-c3ccn[nH]3)c2n1 (stereo unspecified) + Cc1[nH]c2ccc(F)cc2c1-c1nc2c3cccnc3c3ncccc3c2[nH]1	inactive
Nc1ccn(C2OC(CO)C(O)C2(F)F)c(=O)n1 (stereo unspecified) + Cc1[nH]c2ccc(F)cc2c1-c1nc2c3cccnc3c3ncccc3c2[nH]1	active
CC1COCCN1c1cc(C2(O)CC3CCC(C2)O3)c2cnn(-c3ccn[nH]3)c2n1 (stereo unspecified) + Cc1cnc(CNC(=O)c2c(=O)c3ccc(N4CCCN(C)CC4)nc3n3c2sc2ccccc23)cn1	active
CCCS(=O)(=O)Nc1ccc(F)c(C(=O)c2c[nH]c3ncc(-c4ccc(Cl)cc4)cc23)c1F + Cc1cnc(CNC(=O)c2c(=O)c3ccc(N4CCCN(C)CC4)nc3n3c2sc2ccccc23)cn1	active
Nc1ccn(C2OC(CO)C(O)C2(F)F)c(=O)n1 (stereo unspecified) + CN(C)c1ccc(Nc2c3ccc(NC(=O)CCN4CCCC4)cc3nc3cc(NC(=O)CCN4CCCC4)ccc23)cc1	inactive
CC1COCCN1c1cc(C2(S(C)(=N)=O)CC2)nc(-c2ccnc3[nH]ccc23)n1 (stereo unspecified) + CN(C)c1ccc(Nc2c3ccc(NC(=O)CCN4CCCC4)cc3nc3cc(NC(=O)CCN4CCCC4)ccc23)cc1	inactive
CC(C)n1c(=O)n(C)c2cnc3cc(F)c(-c4ccc(OCCCN5CCCCC5)nc4)cc3c21 + Cc1cnc(CNC(=O)c2c(=O)c3ccc(N4CCCN(C)CC4)nc3n3c2sc2ccccc23)cn1	active
COc1ccc([C@@H](O)c2cc(-c3ncnc4cc(N5CCOCC5)ccc34)c(F)cc2Cl)nn1 + CN(C)c1ccc(Nc2c3ccc(NC(=O)CCN4CCCC4)cc3nc3cc(NC(=O)CCN4CCCC4)ccc23)cc1	inactive

---

Test system: 857933-349-R-J2-PDC complex spheroids, viability
measurement.protocol: Anticancer human tumor 857933-349-R-J2-PDC cell line growth inhibition [GQUAD]; active = viability on the fitted dose curve at most 10% of control; inactive = the rest;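 note: spheroids exposed to compounds for one week before readout; percent viability relative to vehicle DMSO wells taken as 100%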
measurement.context: second compound 3.16 µM; first compound 3.16 µM
Classes used: 1 (yes) (active), 0 (no) (inactive)

compound	cat
COc1cc(C2c3cc4c(cc3C(OC3OC5COC(C)OC5C(O)C3O)C3COC(=O)C23)OCO4)cc(OC)c1O (stereo not drawn) + Cc1[nH]c2ccc(F)cc2c1-c1nc2c3cccnc3c3ncccc3c2[nH]1	0 (no)
CCCS(=O)(=O)Nc1ccc(F)c(C(=O)c2c[nH]c3ncc(-c4ccc(Cl)cc4)cc23)c1F + Cc1cnc(CNC(=O)c2c(=O)c3ccc(N4CCCN(C)CC4)nc3n3c2sc2ccccc23)cn1	1 (yes)
O=c1[nH]cc(F)c(=O)[nH]1 + Cc1cnc(CNC(=O)c2c(=O)c3ccc(N4CCCN(C)CC4)nc3n3c2sc2ccccc23)cn1	1 (yes)
